This section presents compounds with their documented Ki values.
# target: fMet-Leu-Phe receptor (Homo sapiens)
# Sequence (P21462 whole entry): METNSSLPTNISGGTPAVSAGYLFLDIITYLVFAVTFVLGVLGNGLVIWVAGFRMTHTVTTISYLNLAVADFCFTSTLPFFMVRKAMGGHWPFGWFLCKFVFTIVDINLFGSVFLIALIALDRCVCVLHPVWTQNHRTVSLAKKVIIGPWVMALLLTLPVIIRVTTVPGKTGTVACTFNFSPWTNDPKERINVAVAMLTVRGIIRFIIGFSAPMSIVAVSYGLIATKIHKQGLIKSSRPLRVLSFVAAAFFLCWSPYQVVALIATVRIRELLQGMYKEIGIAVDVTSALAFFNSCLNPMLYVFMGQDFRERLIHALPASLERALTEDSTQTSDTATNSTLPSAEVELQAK
# experiment description: FPR ligands, dose response (AID 519)
# Type: functional
The source made the active and inactive calls.

The following compounds have reported results that may help.
compound	Ki
O=C(NCCCN1CCN(c2ccc(F)cc2)CC1)c1cccc(N2CCCC2=O)c1	> 66.7 µM (inactive)
COCc1cc(C2C(C(=O)c3ccco3)=C(O)C(=O)N2CCOCCO)ccc1O (centres undefined)	29.7 µM (inactive)
CCC(CC)C(=O)/N=c1\c2cnn(-c3ccccc3)c2[nH]c(=O)n1-c1ccccc1	49.8 µM (inactive)

Here is another compound to look at.
Task item: Recorded Ki for Cc1nn(-c2nc3ccccc3s2)c(C)c1Oc1ccccc1O , please?
Reply: > 66.7 µM (inactive)

###

# experiment description: cytotoxicity toward NIH3T3 fibroblasts, dose response, counter-screen, cell-based, ATP luminescence, mouse fibroblasts (AID 2010);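 note: cells exposed to compound for about 90 hours before reading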
# Assay type: functional
Activity calls are given as the source filed them.
readout kind: EC50

compound	EC50
CCC(C)Oc1cc(-c2ccnc(Nc3cccc(Cl)c3)n2)ccn1 (centres undefined)	7.53 µM (active)
COc1cccc2sc(Nc3nnc(-c4cccs4)o3)nc12	2.96 µM (active)
COc1ccccc1C(=O)N=C(NC(=O)c1ccccc1OC)Nc1nc2ccccc2o1	> 60 µM (not active)

Task item: Recorded EC50 for CCc1cccc2c(C(=O)CN3C(=O)NC(C)(c4cccc5ccccc45)C3=O)c[nH]c12 (centres undefined) , please?
Reply: > 30 µM (not active)

###

# target: UniProt:P34949
# Sequence (P34949 whole entry): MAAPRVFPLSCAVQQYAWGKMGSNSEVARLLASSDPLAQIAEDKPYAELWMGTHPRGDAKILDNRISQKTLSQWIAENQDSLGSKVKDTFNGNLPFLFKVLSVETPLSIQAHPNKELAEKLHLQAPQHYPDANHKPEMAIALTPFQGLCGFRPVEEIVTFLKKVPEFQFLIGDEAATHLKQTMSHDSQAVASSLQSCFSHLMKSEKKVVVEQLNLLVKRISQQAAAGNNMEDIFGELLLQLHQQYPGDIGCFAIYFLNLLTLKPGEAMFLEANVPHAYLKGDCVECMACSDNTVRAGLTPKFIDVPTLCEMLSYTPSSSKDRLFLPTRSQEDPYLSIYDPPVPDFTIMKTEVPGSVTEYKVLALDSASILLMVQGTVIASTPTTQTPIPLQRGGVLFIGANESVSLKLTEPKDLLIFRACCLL
# experiment description: inhibitors of human PMI, primary screen, biochemical, fluorescence intensity, coupled assay (AID 1209)
Activity calls are given as the source filed them.
readout kind: IC50

entry smiles	IC50
CC1(C)CC(=O)C(/C=N/c2ccc3[nH]ncc3c2)=C(O)C1	> 50 µM (not active)
COc1cc(CNc2ccc3[nH]c(O)nc3c2)cc(Cl)c1OCC(=O)NC(C)(C)C	> 50 µM (not active)
N#C/C(=C\c1cccnc1)C(=O)Nc1ccccc1	> 50 µM (not active)

Task item: Recorded IC50 for Cc1ccc(/C=N/n2c(S)nnc2-c2ccncc2)cc1 , please?
Reply: 18.3 µM (active)

###

These records show AC50 for Cytochrome P450 3A4 (Homo sapiens, UniProt P08684).

The following compounds have reported results that may help.
compound	AC50
COc1cc(OC)c2cc(-c3ccncc3)cnc2c1	0.316 µM (inconclusive)
CCOC(=O)c1[nH]c(C)c(C(=O)C2=C(O)C(=O)N(CCN3CCOCC3)C2c2cccs2)c1C (stereo not drawn)	14.1 µM (inconclusive)

Here is another compound to look at.
Task item: Recorded AC50 for O=C(NCc1ccco1)Nc1cccs1 , please?
Reply: 20 µM (inconclusive)

###

# experiment description: NIH-3T3 fibroblast cytotoxicity, dose response, cytotoxicity control, cell-based, fluorescence, Alamar Blue, secondary assay (AID 2327);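 note: NIH-3T3 mouse fibroblasts cultured with fluconazole at 8 µg/mL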
# Assay type: functional
Calls of active or inactive are those of the source.
API: response.call in Yes (active), No (inactive)

molecule	class assignment
CCCCOc1cccc(C2C(C(=O)c3ccc(C)o3)=C(O)C(=O)N2Cc2ccco2)c1 (stereo not drawn)	No
CCCOc1ccc(C(=O)NNC(=S)NC(=O)c2cccs2)cc1	Yes
CC(=O)Oc1ccc2c(=O)c(-c3nc4ccccc4s3)coc2c1	No
Cc1ccccc1-n1c(=O)c(C#N)cc2c(=O)n3ccccc3nc21	No
Oc1c(Br)cc(Br)cc1CNc1cccc2cccnc12	Yes
O=C(Nc1nc(=O)c2ccccc2s1)c1ccc(Cl)cc1	No

Task item: I would be grateful if you could indicate the recorded call for COCCSc1nnc(NC(=O)CCS(=O)(=O)c2ccccc2)s1 .
Reply: No

Task item: I would be grateful if you could indicate the recorded call for Cc1ccc(C2C3CSCC=C3C(C#N)=C(N)C2(C#N)C#N)cc1 (stereo not drawn) .
Reply: No
